Tested on: AVEFA
assay_name: Post-emergence herbicidal effect, greenhouse pot test
Type: in vivo, Avena fatua
condition_notes: Avena fatua, 504 h, 80 g/ha, visual rating about 3 weeks after treatment, read-out: Post-emergence effect against AVEFA
In this section we review reported pest or weed control at 80 g/ha values for a set of compounds.
Give your result in % as a bare value.

Reference set (7 entries):
In [3]: df
Out[3]:
                                   compound  unit_info  value_measured
0  CCOC(=O)C(OC)Oc1nn(-c2ncccc2F)c(-c2ccc(F)nc2)c1Br (centres unmarked) [Example I-14]          %              90
1  CCOC(=O)C(OC)Oc1nn(-c2ncccc2F)c(-c2ccc(F)nc2)c1C(F)(F)F (centres unmarked) [Example I-55]          %              90
2  COC(=O)C(OC)Oc1nn(-c2ncccc2F)c(-c2ccc(F)nc2)c1Br (centres unmarked) [Example I-05]          %              80
3  COC(=O)C(OC)Oc1nn(-c2cc(F)ccc2F)c(-c2cncc(F)c2)c1Br (centres unmarked) [Example I-29]          %              90
4  COC(=O)C(OC)Oc1nn(-c2ncccc2F)c(-c2cncc(F)c2)c1C1CC1 (centres unmarked) [Example I-73]          %              90
5  CCOC(Oc1nn(-c2ccccc2F)c(-c2ccc(F)nc2)c1Br)C(=O)OCCC(=O)OC (single isomer, unassigned) [Example I-63]          %              80
6  COC(=O)C(OC)Oc1nn(-c2ncccc2F)c(-c2ccc(F)nc2)c1C1CC1 (centres unmarked) [Example I-40]          %              80

// recorded pest or weed control at 80 g/ha for CCOC(=O)C(OC)Oc1nn(-c2ccccc2F)c(-c2ccc(F)nc2)c1Br (centres unmarked) [Example I-23] : 80

###

System: SETVI
assay_name: Post-emergence herbicidal effect, greenhouse pot test
Assay type: in vivo, Setaria viridis
condition_notes: Setaria viridis, 504 h, 20 g/ha, read-out: Post-emergence effect against SETVI in %
quantity_name: pest or weed control at 20 g/ha (%)
Give your result in % as a bare value.

Reference set (5 entries):
>>> print(df.to_string())
                                   compound  unit_info  value_measured
0  COC(=O)C(OC)Oc1nn(-c2ccccc2)c(-c2ccc(F)nc2)c1Br (stereo not shown)          %              80
1  COC(=O)C(OC)Oc1nn(-c2cc(F)ccc2F)c(-c2cncc(F)c2)c1C1CC1 (stereo not shown)          %              80
2  COC(=O)C(OC)Oc1nn(-c2ncccc2F)c(-c2cncc(F)c2)c1I (stereo not shown)          %              90
3  COC(=O)C(OC)Oc1nn(-c2ncccc2F)c(-c2cncc(F)c2)c1C1CC1 (stereo not shown)          %              90
4  COC(=O)C(OC)Oc1nn(-c2ncccc2F)c(-c2cncc(F)c2)c1Br (stereo not shown)          %              80

// recorded pest or weed control at 20 g/ha for CCOC(=O)C(OC)Oc1nn(-c2ncccc2F)c(-c2cncc(F)c2)c1C1CC1 (stereo not shown) : 90

// recorded pest or weed control at 20 g/ha for COC(Oc1nn(-c2ncccc2F)c(-c2cncc(F)c2)c1C1CC1)C(=O)O (stereo not shown) : 80
